Just for reference, patent US10836775B2 is where these values come from.

# system-name: human M4 muscarinic acetylcholine receptor (Homo sapiens, UniProt P08173)
# Sequence (P08173 whole entry): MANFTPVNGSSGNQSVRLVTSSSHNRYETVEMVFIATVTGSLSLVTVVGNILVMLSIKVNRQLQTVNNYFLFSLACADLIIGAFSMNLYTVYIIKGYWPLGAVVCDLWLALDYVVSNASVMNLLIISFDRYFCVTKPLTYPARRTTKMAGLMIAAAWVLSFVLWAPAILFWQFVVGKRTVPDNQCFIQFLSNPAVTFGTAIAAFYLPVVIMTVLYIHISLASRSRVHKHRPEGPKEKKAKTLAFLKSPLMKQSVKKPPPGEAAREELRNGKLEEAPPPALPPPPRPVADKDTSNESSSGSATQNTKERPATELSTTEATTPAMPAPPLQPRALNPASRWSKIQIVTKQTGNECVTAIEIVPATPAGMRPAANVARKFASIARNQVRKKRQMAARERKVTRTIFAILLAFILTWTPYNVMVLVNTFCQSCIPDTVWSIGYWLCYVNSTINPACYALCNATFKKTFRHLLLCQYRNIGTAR
# experiment-notes: human FLIPR-based M4 PAM assay (CHO-K1 cells, human M4 receptor and Gαqi5, calcium dye fluorescence, acetylcholine at 20% of maximum)
# measurement-conditions: inflection point (IP) of 4 parameter logistic dose response curve; CHO-K1 cells with human M4 receptor and Gαqi5; FLIPR Tetra
pEC50: −log10 of the molar value.
Assign class by pEC50: not lower than 7 means 1.0; lower than 7 means 0.0.

Assess whether reported pEC50 for COc1ccc(OC2CCN(c3nc4c(cnc(=O)n4C)cc3C)CC2)cn1 sits at 7 or higher.
0.0

Tell me whether pEC50 is at least 7 here: Cc1nc2nc(N3CCC(OCC4(C)CC4)CC3)c(C)cc2c(=O)[nH]1
1.0

Exam item: decide whether the reported pEC50 for Cc1cc2c(=O)[nH]ncc2nc1N1CCC(OCC2CCCC2)CC1 is at least 7.
0.0

Decide: is the reported value of pEC50 for COc1ccc(OC2CCN(c3nc4oc(=O)[nH]c(=O)c4cc3C)CC2)cn1 equal to or greater than 7?
1.0

Kindly determine if pEC50 recorded for Cc1cc2c(=O)n(C)c(C)nc2nc1N1CCC(Oc2cnc3c(c2)COC3)CC1 is above or exactly 7.
0.0

Say whether COCCc1nc2nc(N3CCC(Oc4ccc(OC)nc4)CC3)c(C)cc2c(=O)[nH]1 shows pEC50 of 7 or more.
0.0

Hi team, for COCc1nc2nc(N3CCC(Oc4cccc(C#N)c4)CC3)c(C)cc2c(=O)[nH]1 , is the recorded pEC50 at or above 7?
1.0

Is pEC50 at least 7? Consider COc1ccc(OC2CCN(c3nc4c(cc3C)C(=O)N(Cc3ccncc3)CC4)CC2)cn1
0.0

Quick check, pEC50 >= 7? Cc1cc2c(=O)[nH]cnc2nc1N1CCC(Oc2cccnc2)CC1
0.0

Exam item: decide whether the reported pEC50 for Cc1cc2c(=O)[nH]c(=O)[nH]c2nc1N1CCC(OCC2CCC2)CC1 is at least 7.
0.0

---

For each of the compounds below, state its EC50.
# system-name: human M4 muscarinic acetylcholine receptor (Homo sapiens, UniProt P08173)
# experiment-notes: human FLIPR-based M4 PAM assay (CHO-K1 cells, human M4 receptor and Gαqi5, calcium dye fluorescence, acetylcholine at 20% of maximum)
# measurement-conditions: inflection point (IP) of 4 parameter logistic dose response curve; CHO-K1 cells with human M4 receptor and Gαqi5; FLIPR Tetra
Entry rule: numbers only, all in nM.

What does the record list as EC50 for Cc1cc2c(=O)[nH]c(=O)[nH]c2nc1N1CCC(Oc2cccc(C#N)c2)CC1 [Example 7] ?
41

Given the compound Cc1cc2c(=O)[nH]cnc2nc1N1CCC(Oc2cccc(C#N)c2)CC1 [Example 15] , what is its reported EC50?
23

Which measured EC50 value corresponds to Cc1cc2c(=O)[nH]c(=O)[nH]c2nc1N1CCC(OCC2CCCCC2)CC1 [Example 34] ?
361

Need EC50, item COc1ccc(OC2CCN(c3nc4c(=O)[nH][nH]c(=O)c4cc3C)CC2)cn1 [Example 53]
260

Requested read-out: EC50. Entry: COc1ccc(OC2CCN(c3nc4nc[nH]c(=O)c4cc3C)CC2)cn1 [Example 10]
34

---

# system-name: UniProt P08173
# experiment-notes: human FLIPR-based M4 PAM assay (CHO-K1 cells, human M4 receptor and Gαqi5, calcium dye fluorescence, acetylcholine at 20% of maximum)
# measurement-conditions: inflection point (IP) of 4 parameter logistic dose response curve; CHO-K1 cells with human M4 receptor and Gαqi5; FLIPR Tetra
Could you please report measured pEC50 for the items listed next?
The quantity pEC50 is defined as the negative base-10 logarithm of the molar concentration.

Name the reported pEC50 value associated with the compound Cc1cc2c(=O)[nH]cnc2nc1N1CCC(OCC2CC2)CC1 [Example 17]
6.92

What value of pEC50 has been reported for the following compound? COc1ccc(OC2CCN(c3nc4c(cc3C)C(=O)N(C)CC4)CC2)cn1 [Example 4]
6.37

Which pEC50 value is on record for COc1ccc(CN2CCc3nc(N4CCC(Oc5ccc(OC)nc5)CC4)c(C)cc3C2=O)cc1 [Example 2] ?
6.01

Look up pEC50 for this compound: Cc1cc2c(=O)[nH]c(=O)[nH]c2nc1N1CCC(Oc2cnn(C)c2)CC1 [Example 26]
7.05

I am curious: what pEC50 value has been reported for COc1ccc(OC2CCN(c3nc4occc(=O)c4cc3C)CC2)cn1 [Example 35] ?
7.42

I'd like to know its pEC50. The compound in question is COc1ccc(OC2CCN(c3nc4nc(CO)[nH]c(=O)c4cc3C)CC2)cn1 [Example 9]
6.85

Endpoint output: pEC50 of COc1ccc(OC2CCN(c3nc4c(cc3C)C(=O)NCC4)CC2)cn1 [Example 1] . Value?
6.41

Give its pEC50 value. Item: COc1ccc(OC2CCN(c3nc4[nH]c(=O)oc(=O)c4cc3C)CC2)cn1 [Example 47]
7.11

Entry under review: COc1ccc(OC2CCN(c3nc4nc(C)[nH]c(=O)c4cc3C)CC2)cn1 [Example 19] . Reported pEC50?
7.13

Would you mind telling me what pEC50 value was observed for COCc1nc2nc(N3CCC(Oc4ccc(OC)nc4)CC3)c(C)cc2c(=O)[nH]1 [Example 28] ?
7.02

I am curious: what pEC50 value has been reported for COc1ccc(OC2CCN(c3nc4c(cc3C)CNC(=O)N4)CC2)cn1 [Example 48] ?
6.57

Quick one: pEC50 for COc1ccc(OC2CCN(c3nc4[nH]c(=O)[nH]c(=O)c4cc3C)CC2)cn1 [Example 8] ?
7.74

Form field: reported pEC50 of Cc1cc2c(=O)[nH]cnc2nc1N1CCC(Oc2ccccc2)CC1 [Example 14]
7.10

Given COc1ccc(OC2CCN(c3nc4ncn(C)c(=O)c4cc3C)CC2)cn1 [Example 44] , state its recorded pEC50.
6.87

Which pEC50 value belongs to COc1ccc(OC2CCN(c3nc4[nH]c(=O)n(C)c(=O)c4cc3C)CC2)cn1 [Example 6] ?
7.23

Fill blank: measured pEC50 of the compound Cc1cc2c(=O)[nH]ncc2nc1N1CCC(Oc2cnn(C)c2)CC1 [Example 23] is ____.
6.80

// pEC50 lookup, key: Cc1cc2c(=O)[nH]c(=O)[nH]c2nc1N1CCC(OCC2(C)CC2)CC1 [Example 25]
7.72

Entry Cc1cc2c(=O)[nH]ncc2nc1N1CCC(OCC2(C)CC2)CC1 [Example 24] has what pEC50?
7.74

Requested field: pEC50. Item: Cc1cc2c(=O)[nH]c(=O)[nH]c2nc1N1CCC(OCC2CC2)CC1 [Example 33]
7.28

Value lookup for pEC50; key = COc1ccc(OC2CCN(c3nc4c(cc3C)c(=O)[nH]c(=O)n4C)CC2)cn1 [Example 5]
6.44

Find the recorded pEC50 belonging to COc1ccc(OC2CCN(c3nc4cnn(CCO)c(=O)c4cc3C)CC2)cn1 [Example 42] and report it.
6.96

Data request, read-out pEC50, for COc1ccc(OC2CCN(c3nc4nc(C)n(C)c(=O)c4cc3C)CC2)cn1 [Example 40]
6.81

Recorded pEC50 of Cc1nc2nc(N3CCC(Oc4cnn(C)c4)CC3)c(C)cc2c(=O)[nH]1 [Example 27] , please.
6.31

Suppose we examine the compound COc1ccc(OC2CCN(c3nc4cnn(CO)c(=O)c4cc3C)CC2)cn1 [Example 51] ; what pEC50 value has been reported?
7.34

Form field: reported pEC50 of COc1ccc(OC2CCN(c3nc4c(cc3C)CCNC4=O)CC2)cn1 [Example 46]
6.23

Item CCc1cc2c(=O)[nH]c(=O)[nH]c2nc1N1CCC(OCC2(C)CC2)CC1 [Example 31] has what recorded pEC50?
7.38

Entry under review: Cc1cc2c(=O)[nH]ncc2nc1N1CCC(Oc2cccc(C#N)c2)CC1 [Example 21] . Reported pEC50?
7.59

I have this compound here, COc1ccc(OC2CCN(c3nc4cc(C)oc(=O)c4cc3C)CC2)cn1 [Example 55] , and I need its recorded pEC50.
7.15

Can you look up the measured pEC50 of Cc1cc2c(=O)n(CCO)ncc2nc1N1CCC(OCC2(C)CC2)CC1 [Example 43] for me?
6.88

Which measured pEC50 value corresponds to Cc1cc2c(=O)[nH]ncc2nc1N1CCC(Oc2cnc3c(c2)COC3)CC1 [Example 29] ?
7.28

What pEC50 value was documented for this compound, COc1ccc(OC2CCN(c3nc4cn[nH]c(=O)c4cc3C)CC2)cn1 [Example 11] ?
7.66

Need pEC50 of COc1ccc(OC2CCN(c3nc4[nH]c(=N)[nH]c(=O)c4cc3C)CC2)cn1 [Example 50] , thanks.
6.33
